melting point values for the compounds below.

• COC(=O)C1CCN(c2nc3ccccc3o2)CC1 = 106 to 108 °C
• O=C(O)c1cocn1 = 129 to 131 °C
• COc1ccc(C(=O)c2ccco2)cc1 = 62 to 64 °C
• O=C(O)CN1CCN(C(=O)OCc2ccccc2)CC1 = 142 to 144 °C

[Q] Report melting point for O=C(Nc1ccccc1)C1CCc2ccccc2N1 (stereo not given) please.
[A] 124 to 126 °C

[Q] Report melting point for Cn1nc[nH]c1=O please.
[A] 169 to 171 °C

[Q] Report melting point for CCOC(=O)COc1ccccc1O please.
[A] 51 to 53 °C

[Q] Report melting point for Cn1cc(CNc2ccccc2C(F)(F)F)cn1 please.
[A] 53 to 55 °C

[Q] Report melting point for O=C(O)c1cccc([N+](=O)[O-])c1Br please.
[A] 184 to 186 °C

[Q] Report melting point for Nc1nc2cc3c(cc2s1)OC(F)(F)O3 please.
[A] 191 to 193 °C

* * *

propertyName: melting point

Here is how some molecules turned out for melting point.
• NC(=O)c1n[nH]c2ccc(N)cc12 = 199 to 201 °C
• O=C(O)C1CCCN(C(=O)c2ccncc2)C1 (stereo unspecified) = 258 to 260 °C
• OCc1nccc(Cl)c1Cl = 59 to 61 °C
• O=C(O)Cn1c(SC(F)F)nc2ccccc21 = 188 to 203 °C
• C#CCNC(=O)CCl = 63 to 67 °C
• N#Cc1cc(F)ccc1S(=O)(=O)Cl = 64 to 66 °C
• Sc1nnc2c(Cl)cc(Cl)cn12 = 257 to 259 °C
• CCN(CC)C(=O)c1ccc(C(=O)O)cc1 = 157 to 159 °C
• Nc1ccc(S(=O)(=O)Nc2ccc(Cl)cc2Cl)cc1 = 162 to 164 °C
• Cc1ccc(OCc2ccc(C(=O)O)o2)cc1 = 204 to 206 °C

[Q] Report melting point for Cc1cc(Cl)nc(-c2ccc([N+](=O)[O-])cc2)n1 please.
[A] 184 to 186 °C

[Q] Report melting point for COc1ccc2[nH]c(C)nc2c1 please.
[A] 119 to 121 °C

[Q] Report melting point for N#Cc1ccccc1CS(=O)(=O)Cl please.
[A] 85 to 87 °C

[Q] Report melting point for CC(Cl)C(=O)Nc1ccc(Cl)cc1C(F)(F)F (stereo unspecified) please.
[A] 107 to 109 °C

[Q] Report melting point for O=C(O)C(=O)Cc1ccc(Cl)cc1 please.
[A] 192 to 194 °C

[Q] Report melting point for Nc1nc(-c2cccnc2)no1 please.
[A] 266 to 268 °C

[Q] Report melting point for Fc1ncccc1OCc1ccccc1 please.
[A] 34 to 36 °C

[Q] Report melting point for O=C(O)c1cc(S(=O)(=O)N2CCOCC2)c(Cl)cc1Cl please.
[A] 183 to 185 °C

[Q] Report melting point for O=C(O)c1cc(Br)cc2ccccc12 please.
[A] 229 to 231 °C

* * *

melting point values for the compounds below.

- O=S(=O)(Cl)c1ccc(OCC2CCCCC2)cc1: 82 to 84 °C

[Q] Report melting point for O=C(O)c1ccc2nncn2c1 please.
[A] 315 to 317 °C

[Q] Report melting point for CN(Cc1cnn(C)c1)C(=O)CCl please.
[A] 35 to 37 °C

[Q] Report melting point for Nc1ccc(OCc2cccc(F)c2)c(F)c1 please.
[A] 43 to 45 °C

[Q] Report melting point for NS(=O)(=O)c1ccc(NC(=O)C(=O)O)cc1 please.
[A] 259 to 261 °C

[Q] Report melting point for CC(C)N1CCc2c(sc(N)c2C#N)C1 please.
[A] 167 to 169 °C
